Listed below: Relative intensity ratio of EGFP fluorescence against Scramble II Duplex, PMA values for each entry.
test system: PMA; test: siRNA transfection array, AP1(PMA) EGFP reporter, HepG2 cells; assay type: cell-based, human; conditions: PMA reporter, 48 h culture
result type: Relative intensity ratio of EGFP fluorescence against Scramble II Duplex, PMA

substance | recorded measurement
STAT2 siRNA: siRNA SEQ ID NO: 73 (Dharmacon), targets human interferon alpha induced transcriptional activator M97934 (GGUGCUCAUCUACUCUGUG; chemistry not given here) | 40.6%
HSF-4 siRNA: siRNA SEQ ID NO: 61 (Dharmacon), targets human heat shock transcription factor 4 D87673 (GUCGCCUUCUACUUACAGC; chemistry not given here) | 81.3%
HSF-2 siRNA: siRNA SEQ ID NO: 60 (Dharmacon), targets human HSF2 M65217 (GUUCCACACAGUAGGACUG; chemistry not given here) | 86.8%
NFkB siRNA: siRNA SEQ ID NO: 64 (Dharmacon), targets human p50-NF-kappa B homolog S76638 (GCCUAAGCAGAGAGGCUUC; chemistry not given here) | 82.8%
CREB siRNA: siRNA SEQ ID NO: 55 (Dharmacon), targets human CREB M27691 (CAGGAGUCAGUGGAUAGUG; chemistry not given here) | 128.3%
